Ref: patent US9415034B2

The following molecules are listed with their measured inhibition at 60 min, 8.5 µM values.
Test system: UGT2B
Assay: Measurement of the inhibition of UGT2B activity in vitro (metabolism of nalbuphine in liver microsome, HPLC)
Conditions: male, Sprague-Dawley, rat
measured property: inhibition at 60 min, 8.5 µM (%)

item smiles: COc1cc(-c2oc3cc(O)cc(O)c3c(=O)c2O)ccc1O
measured property: inhibition at 60 min, 8.5 µM
result: 88.4

item smiles: O=c1c(-c2ccc(O)cc2)coc2cc(O)cc(O)c12
measured property: inhibition at 60 min, 8.5 µM
result: 15.6

====

Test: in vivo
Details: male, Sprague-Dawley, rat, serum, iv, 1 mg/Kg

item smiles: Oc1ccc2c3c1O[C@H]1[C@@H](O)CC[C@@]4(O)[C@@H](C2)N(CC2CCC2)CC[C@]314
AUC(0-t) / ng·h/mL: 28.8

====

Test system: UGT2B
Experiment: in vitro
Settings: male, Sprague-Dawley, rat, rate of inhibition (enhancement of the metabolism of nalbuphine in liver microsome)

compound: C[C@H](Cc1ccc(O)c(O)c1)[C@@H](C)Cc1ccc(O)c(O)c1 [nordihydroguaiaretic acid]
inhibition at 60 min: -188%

====

System: UGT2B
Assay: in vitro
Conditions: male, Sprague-Dawley, rat, % Inhibition (Mean ± SD)

compound: C[C@H](Cc1ccc(O)c(O)c1)[C@@H](C)Cc1ccc(O)c(O)c1 [nordihydroguaiaretic acid]
inhibition at 60 min, 850 μM (%): -188
--
compound: CC12CCC(CC1)C(C)(C)O2
inhibition at 60 min, 850 μM (%): 58.9
--
compound: O=c1c(O)c(-c2ccc(O)cc2)oc2cc(O)cc(O)c12
inhibition at 60 min, 850 μM (%): -71.1
--
compound: CC1(C)[C@@H](O[C@H]2O[C@H](C(=O)O)[C@@H](O)[C@H](O)[C@H]2O[C@@H]2O[C@H](C(=O)O)[C@@H](O)[C@H](O)[C@H]2O)CC[C@]2(C)[C@H]3C(=O)C=C4[C@@H]5C[C@@](C)(C(=O)O)CC[C@]5(C)CC[C@@]4(C)[C@]3(C)CC[C@@H]12
inhibition at 60 min, 850 μM (%): -5.65
--
compound: COc1ccc(-c2coc3cc(O)ccc3c2=O)cc1
inhibition at 60 min, 850 μM (%): -24.7
--
compound: CC(=O)OCCCc1ccccc1 [3-phenylpropyl acetate, 3-Phenylpropyl Acetate]
inhibition at 60 min, 850 μM (%): 2.39
--
compound: COc1ccc([C@@H]2CC(=O)c3c(O)cc(O[C@@H]4O[C@H](CO[C@@H]5O[C@@H](C)[C@H](O)[C@@H](O)[C@H]5O)[C@@H](O)[C@H](O)[C@H]4O)cc3O2)cc1O
inhibition at 60 min, 850 μM (%): -42
--
compound: O=C1C[C@@H](c2ccc(O[C@@H]3O[C@H](CO)[C@@H](O)[C@H](O)[C@H]3O)cc2)Oc2cc(O)ccc21
inhibition at 60 min, 850 μM (%): -29.2
--
compound: O=C(O)c1ccc(O)c(O)c1
inhibition at 60 min, 850 μM (%): 9.84
--
compound: O=c1cc(-c2ccc(O)cc2)oc2cc(O)cc(O)c12
inhibition at 60 min, 850 μM (%): -16.1
--
compound: COc1c(O)cc(O)c2c(=O)cc(-c3ccccc3)oc12
inhibition at 60 min, 850 μM (%): -136
--
compound: O=C/C=C/c1ccccc1 [trans-cinnamaldehyde, Trans- Cinnamaldehyde]
inhibition at 60 min, 850 μM (%): 18.3
--
compound: CCCCCCCCCCCCCC(=O)OCC [ethyl myristate, Ethyl Myristate]
inhibition at 60 min, 850 μM (%): 6.33
--
compound: O=C(O)/C=C/c1ccccc1 [trans-cinnamic acid, Trans-Cinnamic Acid]
inhibition at 60 min, 850 μM (%): -135
--
compound: COc1cc(O)c2c(=O)cc(-c3ccc(O)cc3)oc2c1
inhibition at 60 min, 850 μM (%): -43.2
--
compound: O=c1cc(-c2ccc(O)c(O)c2)oc2cc(O)cc(O)c12
inhibition at 60 min, 850 μM (%): -17.6
